From: patent US20040018971A1

target.under.test: T1, HLA-A*0301 (human)
T1 construct: also called HLA-A3
protocol: competitive inhibition of 125I-labelled standard peptide binding to purified HLA-A*0301, gel filtration; standard 941.12 [..] (11 nM)
Measured relative binding ratio (IC50 of standard peptide / IC50 of test peptide), listed per entry.
Entry rule: numbers only, all in ratio.

Below are worked cases with known answers.
[[record]]
binder = "KVLRENTSPK (Synthetic peptide) [HER2/neu peptide, position 753, 10 amino acids]"
value_reported = 0.38

[[record]]
binder = "LCYQDTILWK (Synthetic peptide) [HER2/neu peptide, position 161, 10 amino acids]"
value_reported = 0.0081

[[record]]
binder = "HSCVDLDDK (Synthetic peptide) [HER2/neu peptide, position 632, 9 amino acids]"
value_reported = -0.0002

[[record]]
binder = "KIRKYTMR (Synthetic peptide) [HER2/neu peptide, position 681, 8 amino acids]"
value_reported = 0.001

[[record]]
binder = "ILIKRRQQK (T0001 prints T at residue 673 (FGTLIK)) [HER2/neu peptide, position 673, 9 amino acids]"
value_reported = 0.38


Query :: Identify measured relative binding ratio (IC50 of standard peptide / IC50 of test peptide) associated with LACHQLCAR (Synthetic peptide) [HER2/neu peptide, position 509, 9 amino acids]
Result :: -0.0002

Query :: Identify measured relative binding ratio (IC50 of standard peptide / IC50 of test peptide) associated with LALTLIDTNR (Synthetic peptide) [HER2/neu peptide, position 179, 10 amino acids]
Result :: -0.0002

Query :: Identify measured relative binding ratio (IC50 of standard peptide / IC50 of test peptide) associated with ILKETELRK (Synthetic peptide) [HER2/neu peptide, position 714, 9 amino acids]
Result :: 0.019
